system: Musca domestica; assay: Insecticidal activity against female Musca domestica (house fly) administered through injection into dorsal side of thorax pre-treated with 0.2% w/v NIA and 0.2% w/v PB before compound injection measured 1 hr post dose; assay type: functional
So I've got a bunch of molecules here, and I need their ED50 values.
Report as a plain number; the unit fmol is understood.

Exercise: Bench note: what ED50 did CC(c1ccc(Cl)nc1)N1CCN/C1=N\[N+](=O)[O-] (racemic) [(R,S)-METHYL-IMIDACLOPRID] show?
Solution: 1.7

Exercise: Next record, please: C[C@H](c1ccc(Cl)nc1)N1CCN/C1=N\[N+](=O)[O-] [(R)-METHYL-IMIDACLOPRID]
Solution: 2.3

Exercise: Next record, please: O=[N+]([O-])/N=C1\NCCN1Cc1ccc(Cl)nc1 [IMIDACLOPRID]
Solution: 0.26

Exercise: Next record, please: C[C@@H](c1ccc(Cl)nc1)N1CCN/C1=N\[N+](=O)[O-] [(S)-METHYL-IMIDACLOPRID]
Solution: 1.1

----------
So I've got a bunch of molecules here, and I need their pIC50 values.
target: Nicotinic acetylcholine receptor alpha 5 subunit (Musca domestica); assay: Displacement of [3HIMI from nicotinic acetylcholine receptor in Musca domestica (house fly) head membranes incubated for 60 min by liquid scintillation counting method
Sequence (A9XFY4 whole entry): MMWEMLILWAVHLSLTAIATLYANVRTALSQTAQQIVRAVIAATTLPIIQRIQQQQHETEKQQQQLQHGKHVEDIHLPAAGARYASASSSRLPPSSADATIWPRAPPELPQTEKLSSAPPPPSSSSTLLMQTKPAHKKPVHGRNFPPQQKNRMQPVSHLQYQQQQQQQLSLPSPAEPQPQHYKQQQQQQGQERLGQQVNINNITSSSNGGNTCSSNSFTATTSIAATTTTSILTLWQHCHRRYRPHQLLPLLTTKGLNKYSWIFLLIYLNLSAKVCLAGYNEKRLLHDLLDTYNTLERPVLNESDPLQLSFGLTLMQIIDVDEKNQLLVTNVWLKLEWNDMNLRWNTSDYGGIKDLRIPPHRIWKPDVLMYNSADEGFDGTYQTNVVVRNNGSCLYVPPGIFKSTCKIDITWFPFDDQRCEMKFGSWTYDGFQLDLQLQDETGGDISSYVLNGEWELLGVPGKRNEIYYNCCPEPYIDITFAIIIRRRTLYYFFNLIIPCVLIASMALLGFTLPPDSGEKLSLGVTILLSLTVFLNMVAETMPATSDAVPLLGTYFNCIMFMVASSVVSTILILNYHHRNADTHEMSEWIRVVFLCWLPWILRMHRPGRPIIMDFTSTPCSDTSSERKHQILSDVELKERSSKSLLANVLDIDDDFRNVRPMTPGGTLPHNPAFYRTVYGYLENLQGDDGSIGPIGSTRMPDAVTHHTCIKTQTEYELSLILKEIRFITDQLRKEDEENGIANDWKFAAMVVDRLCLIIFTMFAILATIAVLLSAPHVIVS
# log scale: pIC50 equals minus log10 of the concentration in mol/L

Exercise: Bench note: what pIC50 did C[C@@H](c1ccc(Cl)nc1)N1CCN/C1=N\[N+](=O)[O-] [(S)-METHYL-IMIDACLOPRID] show?
Solution: 6.72

Exercise: Next record, please: C[C@H](c1ccc(Cl)nc1)N1CCN/C1=N\[N+](=O)[O-] [(R)-METHYL-IMIDACLOPRID]
Solution: 6.02

Exercise: Next record, please: Clc1ccc([C@@H]2C[C@H]3CC[C@@H]2N3)cn1 [(+)-EPIBATIDINE]
Solution: 5.55

Exercise: Next record, please: CN1CCC[C@H]1c1cccnc1 [NICOTINE]
Solution: 4.92

Exercise: Next record, please: CN1CCC[C@@H]1c1cccnc1 [R-NICOTINE]
Solution: 3.37

Exercise: Next record, please: Clc1ccc([C@H]2C[C@@H]3CC[C@H]2N3)cn1 [(-)-EPIBATIDINE]
Solution: 5.87

Exercise: Next record, please: CC(c1ccc(Cl)nc1)N1CCN/C1=N\[N+](=O)[O-] (racemic) [(R,S)-METHYL-IMIDACLOPRID]
Solution: 6.68

----------
system: Periplaneta americana; experiment: Neuroblocking potency against Periplaneta americana (American cockroach) abdominal central nerve cord assessed as compound concentration at which the frequency first reduced below 10 counts/30 secs […] by electrophysiologt method; type: functional
MEASURED QUANTITY: Activity (µM)
Report as a plain number; the unit µM is understood.

Exercise: Enter reported Activity observed with Periplaneta americana for C[C@@H](c1ccc(Cl)nc1)N1CCN/C1=N\[N+](=O)[O-] [(S)-METHYL-IMIDACLOPRID]
Solution: 5.9

Exercise: Next record, please: CC(c1ccc(Cl)nc1)N1CCN/C1=N\[N+](=O)[O-] (racemic) [(R,S)-METHYL-IMIDACLOPRID]
Solution: 15

Exercise: Next record, please: C[C@H](c1ccc(Cl)nc1)N1CCN/C1=N\[N+](=O)[O-] [(R)-METHYL-IMIDACLOPRID]
Solution: 73

Exercise: Next record, please: O=[N+]([O-])/N=C1\NCCN1Cc1ccc(Cl)nc1 [IMIDACLOPRID]
Solution: 2.3

Reference source: ChEMBL document CHEMBL3046221
